System: SF-539 CNS
Assay: NCI-60 one-dose screen, 48 h (100 = growth as untreated, 0 = no growth, -100 = all killed)
Details: 10 µM unless noted
About 83,000 compounds went through this panel and 20% of them were active in at least one assay; those are over-represented in the sample as a whole.
EXPERIMENTAL_READOUT: growth (%)
One number for each entry, in %.

What does the record list as growth for CN(C)C(=O)c1ccccc1-n1cnc2ccccc2c1=O ? 95.5

What does the record list as growth for O=C(Nc1ccc(F)cc1)c1cc(-c2ccc(F)cc2F)ccc1O ? 15.6

What does the record list as growth for CCCCCc1ccc(S(=O)(=O)N(C(C)=O)c2cccc(-c3csc(N(CCN4CCN(C)CC4)C(C)=O)n3)c2)cc1 ? -80.9

Give growth for each of the items listed below.
1. Cc1cc(NS(=O)(=O)c2ccc(-c3cnc(C4CC4)o3)cc2)ccc1I
2. COc1ccc(Cn2cc3c(c2-c2ccccc2)CCCc2cnoc2-3)cc1
3. NS(=O)(=O)Oc1ccc2nc(Nc3ccc(F)c(F)c3)ccc2c1
4. COc1ccc(C(=O)c2c(N)c(C#N)cn2-c2cccc(OC)c2)cc1

11.5
52.6
89.9
-5.54

Give growth for each of the items listed below.
1. O=S(=O)(Nc1ccc(I)c(Cl)c1)c1ccc(-c2cnc(C3CC3)o2)cc1
2. Cc1ccc(/C=C/CC(=O)Nc2ccc(C(=O)Nc3ccc(F)cc3N)nc2)cn1
3. CCNC(=O)Oc1ccc(/C(=C(/C)c2ccccc2)c2ccc(OCCN3CCCC3)cc2)cc1

10.9
40.8
49.7
